test system: Desulfovibrio desulfuricans IFO 13699; assay: MIC against Desulfovibrio desulfuricans; type: cell-based; conditions: Desulfovibrio desulfuricans, IFO13699, 24 h
Form field: MIC (one value per entry).

compound | MIC (µg/mL)
CCCCCCCCCCCCN1CCN=C(C)CC1=O | 6.25
CCCCCCCCCCCCCCNCCN1CC[N+](CC(=O)[O-])=CCCC1=O | 6.25
CCCCCCCCOCCCN1CC[N+](CC(=O)[O-])=C(C)CC1=O | 50
CCCCCCCCCCCCNCCNCCN1CC[N+](CC(=O)[O-])=C(C)CC1=O | 6.25
CCCCCCCCCCCCCCNCCN1CC[N+](C(C)C(=O)[O-])=CCC(C)C1=O (stereo not shown) | 6.25
CCCCCCCC(=O)NCCN1CC[N+](C(C)C(=O)[O-])=CCCC1=O (stereo not shown) | 50
CCCCCCCC(=O)OCCN1CCN=C(C)CC1=O | 25
CCCCCCCCCCCCCCC(O)CNCCN1CC[N+](CC(=O)[O-])=CC(C)(C)C1=O (stereo not shown) | 6.25
CCCCCCCC(=O)OCCN1CC[N+](CC(=O)[O-])=C(C)CC1=O | 50
CCCCCCCC(=O)NCCN1CCN=C(C)CC1=O | 50

---

test system: Desulfovibrio desulfuricans IFO 13699; assay: MIC against Desulfovibrio desulfuricans; format: cell-based; conditions: Desulfovibrio desulfuricans, IFO13699, 24 h
Form field: MIC (one value per entry).
measure_name: MIC (µg/mL)

molecule | measure_name | unit_name | test_result
CCCCCCCCCCCCCCNCCN1CCC[N+](C(C)C(=O)[O-])=CC(C)C1=O (stereo not drawn) | MIC | µg/mL | 6.25
CCCCCCCCOCCCN1CC[N+](CC(=O)[O-])=CC(C)(C)C1=O | MIC | µg/mL | 50
CC1=[N+](CC(=O)[O-])CCN(CC(C)OCC(C)OCC(C)OCc2ccc(C)cc2)C(=O)C1 (stereo not drawn) | MIC | µg/mL | 50
CCCCCCCCCCCC(=O)NCCN1CC[N+](CC(=O)[O-])=C(C)CC1=O | MIC | µg/mL | 12.5
CCCCCCCCCCCC(=O)NCCN1CCN=C(C)CC1=O | MIC | µg/mL | 6.25
CCCCCCCC/C=C\CCCCCCCC(=O)NCCN1CC[N+](CC(=O)[O-])=C(C)CC1=O | MIC | µg/mL | 12.5
CCCCCCCC/C=C\CCCCCCCC(=O)NCCN1CCN=C(C)CC1=O | MIC | µg/mL | 6.25
CCCCCCCCCCCCCCC(O)CNCCN1CC[N+](CC(=O)[O-])=CCC(C)C1=O (stereo not drawn) | MIC | µg/mL | 25
CCCCCCCCCCCCCCNCCN1CC[N+](C(C)C(=O)[O-])=CC(C)(C)C1=O (stereo not drawn) | MIC | µg/mL | 6.25
CCCCCCCCCc1ccc(OCC(O)CNCCNCCNCCN2CCN=CC(C)C2=O)cc1 (stereo not drawn) | MIC | µg/mL | 50
CCCCCCCCCc1ccc(OCC(O)CNCCNCCNCCN2CCN=CCC(C)C2=O)cc1 (stereo not drawn) | MIC | µg/mL | 50
CC1=NCCN(CC(C)OCC(C)OCC(C)OCc2ccc(C)cc2)C(=O)C1 (stereo not drawn) | MIC | µg/mL | 50
CCCCCCCC/C=C\CCCCCCCC(=O)OCCN1CCN=C(C)CC1=O | MIC | µg/mL | 12.5
CCCCCCCCC=CCCCCCCCCN1CCCN=C(C)CC1=O | MIC | µg/mL | 12.5
CCCCCCCCC=CCCCCCCCCN1CCC[N+](CC(=O)[O-])=C(C)CC1=O | MIC | µg/mL | 12.5
CCCCCCCCCc1ccc(OCCOCCN2CCC[N+](CC(=O)[O-])=C(C)CC2=O)cc1 | MIC | µg/mL | 25
CCCCCCCCCCC(O)CN1CC[N+](CC(=O)[O-])=C(C)CC1=O (stereo not drawn) | MIC | µg/mL | 6.25
CCCCCCCCCc1ccc(OCCOCCN2CCCN=C(C)CC2=O)cc1 | MIC | µg/mL | 12.5
CCCCCCCCC=CCCCCCCCCN1CCN=CCCC1=O | MIC | µg/mL | 50
CCCCCCCCCc1ccc(OCC(O)CNCCNCCNCCN2CC[N+](CC(=O)[O-])=CC(C)C2=O)cc1 (stereo not drawn) | MIC | µg/mL | 50
CCCCCCCCCCCC(=O)OCCN1CCC[N+](CC(=O)[O-])=C(C)CC1=O | MIC | µg/mL | 25
CCCCCCCCCCCCOCC(O)CN1CCCN=C(C)CC1=O (stereo not drawn) | MIC | µg/mL | 25
CCCCCCCCCCCCNCCN1CC[N+](CC(=O)[O-])=C(C)CC1=O | MIC | µg/mL | 12.5
CCCCCCCCCCCCCCCCCCCCCCNCCN1CCN=C(C)CC1=O | MIC | µg/mL | 12.5
CCCCCCCCCCCCN1CC[N+](CC(=O)[O-])=C(C)CC1=O | MIC | µg/mL | 12.5
CCCCCCCCCCCCCCCCCCCCCC(=O)OCCN1CC[N+](CC(=O)[O-])=CCCC1=O | MIC | µg/mL | 12.5
CCCCCCCCCCCCC(O)CN1CCC[N+](CC(=O)[O-])=C(C)CC1=O (stereo not drawn) | MIC | µg/mL | 6.25
CCCCCCC(O)CC=CCCCCCCCC(=O)OC(C)CN1CCCN=C(C)CC1=O (stereo not drawn) | MIC | µg/mL | 25
CCCCCCCCCCCCCCC(O)CNCCN1CCN=CCC(C)C1=O (stereo not drawn) | MIC | µg/mL | 12.5
CCCCCCCCc1ccc(OCCOC(C)COC(C)CN2CC[N+](CC(=O)[O-])=C(C)CC2=O)cc1 (stereo not drawn) | MIC | µg/mL | 50
CCCCCCCCCCCCNCCCN1CCC[N+](CC(=O)[O-])=C(C)CC1=O | MIC | µg/mL | 50
CCCCCCCCCCCCCCC(O)CNCCN1CCN=CCCC1=O (stereo not drawn) | MIC | µg/mL | 6.25
CCCCCCCCCCCCCCC(O)CNCCN1CCC[N+](CC(=O)[O-])=CC(C)(C)C1=O (stereo not drawn) | MIC | µg/mL | 12.5
CCCCCCCCCCCC(=O)NCCN1CC[N+](CC(=O)[O-])=CC(C)C1=O (stereo not drawn) | MIC | µg/mL | 6.25
CC1=NCCN(CCNC(=O)CCCCCCCCCCCCCCC(C)C)C(=O)C1 | MIC | µg/mL | 6.25
CCCCCCCCCCCCCCCCCCCCCCNCCN1CC[N+](CC(=O)[O-])=C(C)CC1=O | MIC | µg/mL | 12.5
CCCCCCCCC=CCCCCCCCCN1CC[N+](CC(=O)[O-])=CCCC1=O | MIC | µg/mL | 50
CCCCCCCCCCCCN1CCCN=C(C)CC1=O | MIC | µg/mL | 6.25
CCCCCCCCCCCCNCCNCCNCCCN1CCC[N+](CC(=O)[O-])=C(C)CC1=O | MIC | µg/mL | 25

---

Form field: MIC (one value per entry).
tested on: Staphylococcus epidermidis; test: MIC against Staphylococcus epidermidis; assay type: cell-based; details: Staphylococcus epidermidis; Table 3; heart infusion agar, 37° C., 24 hours; read-out: MIC

compound | assay_system | bound_sign | MIC / µg/mL
CCCCCCCCCCCCNCCNCCN1CCN=C(C)CC1=O [Example 34] | Staphylococcus epidermidis | < | 1.56
CCCCCCCCCCCCCCNCCN1CCN=CCCC1=O [Example 53] | Staphylococcus epidermidis | = | 1.56
CCCCCCCCCCCCCCC(O)CNCCN1CCN=CCC(C)C1=O (stereo not drawn) [Example 66] | Staphylococcus epidermidis | = | 1.56

---

test system: Pseudomonas aruginosa IFO 3443; assay: MIC against Pseudomonas aeruginosa; type: cell-based; details: Pseudomonas, IFO3443; Table 3; heart infusion agar, 37° C., 24 hours; read-out: MIC

compound | MIC [µg/mL]
CCCCCCCCCCCCCCC(O)CNCCN1CCN=CC(C)(C)C1=O (stereo not shown) [Example 59] | 100
CCCCCCCCCCCCNCCN1CCN=C(C)CC1=O [Example 2] | 100
CCCCCCCCCCCCCCC(O)CNCCN1CCN=C(C)CC1=O (stereo not shown) [Example 29] | 100
CCCCCCCCCCCCCCNCCN1CCN=C(C)CC1=O [Example 35] | 54

---

system: Desulfovibrio desulfuricans IFO 13699; test: MIC against Desulfovibrio desulfuricans; format: cell-based; details: Desulfovibrio desulfuricans, IFO13699, 24 h

compound | assay_system | MIC, µg/mL
CCCCCCCCCCCCNC(=O)CCC [Laurylbutylamide, reference compound] | Desulfovibrio desulfuricans IFO 13699 | 400
CCCCCCCCCCCCOCC(O)CN1CCC[N+](C(C)C(=O)[O-])=C(C)CC1=O (stereo not shown) | Desulfovibrio desulfuricans IFO 13699 | 12.5
CCCCCCCCCCCC(=O)OCCN1CCN=C(C)CC1=O | Desulfovibrio desulfuricans IFO 13699 | 12.5
CCCCCCCCCCCCNCCNCCNCCCN1CCCN=C(C)CC1=O | Desulfovibrio desulfuricans IFO 13699 | 25
CCCCCCCCCCCCCCC(O)CNCCN1CC[N+](CC(=O)[O-])=CCCC1=O (stereo not shown) | Desulfovibrio desulfuricans IFO 13699 | 6.25
CCCCCCCCCCCCCCCCN1CC[N+](CC(=O)[O-])=C(C)CC1=O | Desulfovibrio desulfuricans IFO 13699 | 12.5
CCCCCCCCCCCCCCNCCN1CCCN=CC(C)(C)C1=O | Desulfovibrio desulfuricans IFO 13699 | 6.25
CCCCCCCCCCCCNCCCN1CCCN=C(C)CC1=O | Desulfovibrio desulfuricans IFO 13699 | 25
CCCCCCCCCCC(O)CN1CCN=C(C)CC1=O (stereo not shown) | Desulfovibrio desulfuricans IFO 13699 | 12.5
CCCCCCCCCc1ccc(OCCOCCN2CCCN=CC(C)(C)C2=O)cc1 | Desulfovibrio desulfuricans IFO 13699 | 50

Numbers sourced from patent US4346087A.
